B1: library; numbered along this chain (parent)
chain: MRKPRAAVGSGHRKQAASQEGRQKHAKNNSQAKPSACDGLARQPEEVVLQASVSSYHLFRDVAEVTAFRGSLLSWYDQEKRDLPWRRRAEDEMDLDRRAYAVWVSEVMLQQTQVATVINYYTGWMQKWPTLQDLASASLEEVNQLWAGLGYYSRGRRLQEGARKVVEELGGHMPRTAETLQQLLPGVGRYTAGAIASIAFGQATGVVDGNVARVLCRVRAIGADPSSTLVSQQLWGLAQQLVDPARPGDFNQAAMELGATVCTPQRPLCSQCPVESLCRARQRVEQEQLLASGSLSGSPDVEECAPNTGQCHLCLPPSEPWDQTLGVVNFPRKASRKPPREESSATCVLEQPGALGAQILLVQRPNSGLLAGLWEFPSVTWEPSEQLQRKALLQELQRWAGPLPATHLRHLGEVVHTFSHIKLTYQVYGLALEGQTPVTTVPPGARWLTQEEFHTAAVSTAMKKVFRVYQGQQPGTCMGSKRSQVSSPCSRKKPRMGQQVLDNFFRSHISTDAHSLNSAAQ

Variants of: B1
measurement.description: 8OG:A repair function score (normalized; synonymous = 0, nonsense = -1) (normalized log-likelihood score); higher = more repair activity (WT-like);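 further: cells sorted at 72 h after reporter transfection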
setup.conditions: with 8OG:A DNA repair reporter (GFP) in HEK-293 MUTYH KO cells
Property: 8OG:A repair function score; scope: individual variants
metric.name: 8OG:A repair function score

> print(dat)
    mutations                  metric.name  measured.value
 1      A457V  8OG:A repair function score          -0.205
 2       D91F  8OG:A repair function score         0.00319
 3      A253D  8OG:A repair function score           -1.03
 4      R154G  8OG:A repair function score           -1.12
 5      Q499R  8OG:A repair function score         -0.0243
 6      V102E  8OG:A repair function score           -1.11
 7      N366G  8OG:A repair function score          -0.066
 8      Q202Y  8OG:A repair function score          -0.329
 9      R279D  8OG:A repair function score          -0.718
10      G236P  8OG:A repair function score          -0.455
11      Q239L  8OG:A repair function score          -0.403
12      A456L  8OG:A repair function score          -0.287
13      G209L  8OG:A repair function score          -0.534
14      A177D  8OG:A repair function score          -0.363
15       E79L  8OG:A repair function score         -0.0186
16      L131K  8OG:A repair function score          -0.394
17      V207Y  8OG:A repair function score          -0.858
18      Y190V  8OG:A repair function score          -0.566
19      Q310N  8OG:A repair function score         0.00143
20      A212C  8OG:A repair function score        -0.00168
21       E45H  8OG:A repair function score          0.0965
22      R364M  8OG:A repair function score          -0.577
23       R88C  8OG:A repair function score         -0.0122
24      I195K  8OG:A repair function score           -1.05
25      T460W  8OG:A repair function score          -0.305
26      I195C  8OG:A repair function score           -0.59
27      Q386E  8OG:A repair function score         -0.0345
28      R332W  8OG:A repair function score          0.0485
29      S335F  8OG:A repair function score         -0.0626
30      C314E  8OG:A repair function score          -0.317
31      S138F  8OG:A repair function score          -0.378
32      G248L  8OG:A repair function score           -1.01
33      E287P  8OG:A repair function score          -0.121
34      L393K  8OG:A repair function score         -0.0987
35       V65N  8OG:A repair function score          -0.208
36      Q323F  8OG:A repair function score         -0.0491
37      L234Q  8OG:A repair function score          -0.724
38      F505V  8OG:A repair function score         0.00446
39      Q397E  8OG:A repair function score          -0.364
40      D249W  8OG:A repair function score          -0.851
41      R154T  8OG:A repair function score           -1.16
42      W381Q  8OG:A repair function score           0.126
43      Q484G  8OG:A repair function score         0.00288
44      L369E  8OG:A repair function score          -0.807
45      G297K  8OG:A repair function score          0.0192
46      Y469P  8OG:A repair function score          -0.718
47      Q126K  8OG:A repair function score          0.0876
48      L387S  8OG:A repair function score           0.154
49      F376A  8OG:A repair function score          -0.775
50      V207M  8OG:A repair function score          -0.495
51      R495P  8OG:A repair function score          0.0276
52      G193Y  8OG:A repair function score          -0.241
53      L234P  8OG:A repair function score           -1.02
54      E395S  8OG:A repair function score          0.0493
55      Q182F  8OG:A repair function score          -0.161
56      Q271M  8OG:A repair function score         -0.0166
57      S510E  8OG:A repair function score         -0.0364
58      E302L  8OG:A repair function score          -0.236
59      Y120H  8OG:A repair function score          -0.238
60      G434V  8OG:A repair function score         -0.0502
61      Q159I  8OG:A repair function score          0.0245
62       M93T  8OG:A repair function score         0.00168
63      L516M  8OG:A repair function score         0.00845
64      Q386V  8OG:A repair function score          -0.383
65      L516I  8OG:A repair function score          0.0106
66      V206C  8OG:A repair function score         -0.0127
67      Y425G  8OG:A repair function score          -0.907
68      C272K  8OG:A repair function score           -1.41
69      R217E  8OG:A repair function score           -1.03
70       R81I  8OG:A repair function score          -0.704
71      T308H  8OG:A repair function score         -0.0553
72      T380D  8OG:A repair function score          0.0495
73      N251R  8OG:A repair function score           -1.02
74      E167A  8OG:A repair function score           -0.18
75      V142P  8OG:A repair function score          -0.569
76       A51L  8OG:A repair function score          -0.036
77      R506N  8OG:A repair function score         0.00916
78      V362A  8OG:A repair function score          -0.284
79      I221C  8OG:A repair function score          -0.728
80      S226W  8OG:A repair function score          -0.231
81      H410D  8OG:A repair function score          -0.324
82      R283M  8OG:A repair function score         -0.0516
